System: Echinochloa crus-galli (ECHCG)
METHOD DESCRIPTION: Example A pre-emergence herbicidal glasshouse test
Type: in vivo
TEST SETTINGS: 312 h, Rate 250 g/ha, evaluated after 13 days, 100=total damage to plant, 0=no damage to plant
RECORDED METRIC: pest or weed control at 250 g/ha
Answer with the value and then the unit.

Example cases with answers are listed next.
>>> print(df.to_string())
                                   molecule                   recorded_metric  observed_measurement
0  Cc1ccc(-c2ccc(F)c(F)c2)cc1C1=C(O)[C@H]2CC[C@H](C2)C1=O (single isomer, unassigned) [Compound T9]  pest or weed control at 250 g/ha                    0%
1  CCc1ccc(-c2ccc(Cl)c(Cl)c2)cc1C1=C(O)[C@H]2CC[C@H](C2)C1=O (single isomer, unassigned) [Compound T35]  pest or weed control at 250 g/ha                   90%
2  CCc1ccc(-c2ccc(Cl)cc2)cc1C1=C(O)[C@H]2CC[C@H](C2)C1=O [Compound T4]  pest or weed control at 250 g/ha                  100%
3  Cc1cc(-c2ccc(Cl)cc2)ccc1C1=C(O)[C@H]2CC[C@H](C2)C1=O [Compound T61]  pest or weed control at 250 g/ha                   80%
4  CCc1ccc(-c2ccc(Cl)cc2F)cc1C1=C(O)[C@H]2CC[C@H](C2)C1=O (single isomer, unassigned) [Compound T41]  pest or weed control at 250 g/ha                   90%
5  CCc1cc(-c2ccc(C)cc2)cc(CC)c1C1=C(O)[C@H]2CC[C@H](C2)C1=O [Compound T63]  pest or weed control at 250 g/ha                   90%
6  CCc1ccc(-c2ccc(Cl)cc2Cl)cc1C1=C(O)[C@H]2CC[C@H](C2)C1=O [Compound T44]  pest or weed control at 250 g/ha                   90%
7  CCc1ccc(-c2ccc(Cl)cc2Cl)cc1C1=C(OC(C)=O)[C@H]2CC[C@H](C2)C1=O (single isomer, unassigned) [Compound P7]  pest or weed control at 250 g/ha                  100%

[Q] Could you share which pest or weed control at 250 g/ha value was measured for CCc1ccc(-c2ccc(Cl)cc2C(F)(F)F)cc1C1=C(O)[C@H]2CC[C@H](C2)C1=O (single isomer, unassigned) [Compound T45] ?
[A] 0%

[Q] Could you share which pest or weed control at 250 g/ha value was measured for Cc1ccc(-c2ccccc2C)cc1C1=C(O)[C@H]2CC[C@H](C2)C1=O (single isomer, unassigned) [Compound T18] ?
[A] 0%
